Provenance of the data: patent US4236015A

System: Trichophyton mentagrophytes
Test: Antifungal activity, agar dilution method
Type: cell-based, Trichophyton mentagrophytes (ATCC No. 8757 and 9129)
Description: Various compounds of this invention display antifungal and anti-yeast activity. In Table IX below are listed the antifungal activity of a number of compounds encompassed in the present invention. These were determined by the agar dilution method as described in Chapters 2 and 3 of Methods in Microbiology, Vol. 7B, edited by J. R. Norris and D. W. Ribbons, Academic Press, New York, 1972.
readout.kind: Parts Per Million Inhibitions, T. mentagrophytes (Parts Per Million)
Record the value in Parts Per Million, omitting the unit from your answer.

Give the reported value of Parts Per Million Inhibitions, T. mentagrophytes for this record: Cc1ccc(-c2nc3ccccc3n3ccnc23)cc1 [Compound 134]
16

Give the reported value of Parts Per Million Inhibitions, T. mentagrophytes for this record: CCCCCCCCCC(=O)Oc1ccc(-c2nc3ccccc3n3ccnc23)cc1 [Compound 165]
100

Give the reported value of Parts Per Million Inhibitions, T. mentagrophytes for this record: COc1cc(OC)cc(-c2nc3ccccc3n3ccnc23)c1 [Compound 139]
100

Give the reported value of Parts Per Million Inhibitions, T. mentagrophytes for this record: Cc1cccc(-c2nc3ccccc3n3ccnc23)c1 [Compound 133]
8

Give the reported value of Parts Per Million Inhibitions, T. mentagrophytes for this record: Cc1ccccc1-c1nc2ccccc2n2ccnc12 [Compound 132]
100

Give the reported value of Parts Per Million Inhibitions, T. mentagrophytes for this record: c1ccc(-c2ccc(-c3nc4ccccc4n4ccnc34)cc2)cc1 [Compound 135]
100

Give the reported value of Parts Per Million Inhibitions, T. mentagrophytes for this record: CC(C)(C)c1ccc(-c2nc3ccccc3n3ccnc23)cc1 [Compound 137]
100

Give the reported value of Parts Per Million Inhibitions, T. mentagrophytes for this record: FC(F)(F)c1cccc(-c2nc3ccccc3n3ccnc23)c1 [Compound 136]
100
